- protocol_details: Test 4: percent generation of Compound (IV) in human small intestine S9
- Format: in vitro ADME
- assay_setup: 3 μM, 1 mg protein/mL, 37° C. x 1 hr
parameter_measured: Percent generation (%) of Compound IV in human small intestine S9

[
  {
    "molecular_string": "Cl.N[C@@H](Cc1ccccc1)C(=O)N[C@]1(C(=O)O)[C@H]2[C@@H](C[C@@H]1F)[C@@H]2C(=O)O",
    "units_of_measure": "%",
    "comparison_symbol": "<",
    "quantitative_result": 10
  },
  {
    "molecular_string": "CC(C)C[C@H](N)C(=O)N[C@]1(C(=O)O)[C@H]2[C@@H](C[C@@H]1F)[C@@H]2C(=O)O.Cl",
    "units_of_measure": "%",
    "comparison_symbol": "=",
    "quantitative_result": 11.7
  },
  {
    "molecular_string": "CSCC[C@@H](N)C(=O)N[C@]1(C(=O)O)[C@H]2[C@@H](C[C@@H]1F)[C@@H]2C(=O)O.Cl",
    "units_of_measure": "%",
    "comparison_symbol": "<",
    "quantitative_result": 10
  },
  {
    "molecular_string": "C[C@H](N)C(=O)N[C@]1(C(=O)O)[C@H]2[C@@H](C[C@@H]1F)[C@@H]2C(=O)O.Cl",
    "units_of_measure": "%",
    "comparison_symbol": "=",
    "quantitative_result": 17.8
  }
]

* * *

Percent generation (%) of Compound IV in human small intestine S9 values by entry
- protocol_details: Test 4: percent generation of Compound (IV) in human small intestine S9
- Format: in vitro ADME
- assay_setup: 3 μM, 1 mg protein/mL, 37° C. x 1 hr
parameter_measured: Percent generation (%) of Compound IV in human small intestine S9

[
  {
    "molecule": "CC[C@H](C)[C@H](N)C(=O)N[C@]1(C(=O)O)[C@H]2[C@@H](C[C@@H]1F)[C@@H]2C(=O)O.Cl [Ex. D-6]",
    "comparison_symbol": "<",
    "quantitative_result": 10
  },
  {
    "molecule": "CSCC[C@H](N)C(=O)N[C@]1(C(=O)O)[C@H]2[C@@H](C[C@@H]1F)[C@@H]2C(=O)O.Cl [Ex. D-1]",
    "comparison_symbol": "=",
    "quantitative_result": 20.9
  },
  {
    "molecule": "Cl.NCC(=O)N[C@]1(C(=O)O)[C@H]2[C@@H](C[C@@H]1F)[C@@H]2C(=O)O [Ex. D-3]",
    "comparison_symbol": "<",
    "quantitative_result": 10
  },
  {
    "molecule": "C[C@H](N)C(=O)N[C@@H](C)C(=O)N[C@]1(C(=O)O)[C@H]2[C@@H](C[C@@H]1F)[C@@H]2C(=O)O.Cl [Ex. D-8]",
    "comparison_symbol": "=",
    "quantitative_result": 11.7
  },
  {
    "molecule": "CCC[C@H](N)C(=O)N[C@]1(C(=O)O)[C@H]2[C@@H](C[C@@H]1F)[C@@H]2C(=O)O.Cl [Ex. D-4]",
    "comparison_symbol": "<",
    "quantitative_result": 10
  },
  {
    "molecule": "Cl.O=C(O)[C@H]1[C@@H]2C[C@H](F)[C@@](NC(=O)[C@@H]3CCCN3)(C(=O)O)[C@@H]21 [Ex. D-10]",
    "comparison_symbol": "<",
    "quantitative_result": 10
  },
  {
    "molecule": "Cl.NCCCC[C@H](N)C(=O)N[C@]1(C(=O)O)[C@H]2[C@@H](C[C@@H]1F)[C@@H]2C(=O)O [Ex. D-5]",
    "comparison_symbol": "=",
    "quantitative_result": 25.9
  }
]

* * *

Compound's percent residue (%) pH 1.2 values by entry
- protocol_details: Test 1: Solution Stability Test
- Type: physicochemical
- assay_setup: hydrochloric acid solution (pH 1.2), 37° C., one hour, about 50 μg/mL

[
  {
    "compound": "CC[C@H](C)[C@H](N)C(=O)N[C@]1(C(=O)O)[C@H]2[C@@H](C[C@@H]1F)[C@@H]2C(=O)O.Cl [Ex. D-6]",
    "Compound's percent residue (%) pH 1.2": 101
  },
  {
    "compound": "CC(OC(=O)O[C@@H]1C[C@H](C)CC[C@H]1C(C)C)OC(=O)[C@H]1[C@@H]2C[C@H](F)[C@@](N)(C(=O)O)[C@@H]21 (some centres unmarked) [Ex. A-3]",
    "Compound's percent residue (%) pH 1.2": 100
  },
  {
    "compound": "CC(C)COC(C)OC(=O)[C@H]1[C@@H]2C[C@H](F)[C@@](N)(C(=O)O)[C@@H]21.Cl (some centres unmarked) [Ex. A-8]",
    "Compound's percent residue (%) pH 1.2": 100
  },
  {
    "compound": "CCC[C@H](N)C(=O)N[C@]1(C(=O)O)[C@H]2[C@@H](C[C@@H]1F)[C@@H]2C(=O)O.Cl [Ex. D-4]",
    "Compound's percent residue (%) pH 1.2": 101
  },
  {
    "compound": "CC(OC(=O)[C@H]1[C@@H]2C[C@H](F)[C@@](N)(C(=O)O)[C@@H]21)OC(=O)C12CC3CC(CC(C3)C1)C2 (some centres unmarked) [Ex. A-2]",
    "Compound's percent residue (%) pH 1.2": 101
  },
  {
    "compound": "CC(OC(=O)OC1CCCCC1)OC(=O)[C@H]1[C@@H]2C[C@H](F)[C@@](N)(C(=O)O)[C@@H]21 (some centres unmarked) [Ex. A-10]",
    "Compound's percent residue (%) pH 1.2": 100
  },
  {
    "compound": "Cl.NCC(=O)N[C@]1(C(=O)O)[C@H]2[C@@H](C[C@@H]1F)[C@@H]2C(=O)O [Ex. D-3]",
    "Compound's percent residue (%) pH 1.2": 100
  },
  {
    "compound": "Cl.N[C@]1(C(=O)O)[C@H]2[C@@H](C[C@@H]1F)[C@@H]2C(=O)OC1OC(=O)c2ccccc21 (some centres unmarked) [Ex. A-17]",
    "Compound's percent residue (%) pH 1.2": 99
  },
  {
    "compound": "CC(C)C[C@H](N)C(=O)N[C@]1(C(=O)O)[C@H]2[C@@H](C[C@@H]1F)[C@@H]2C(=O)O.Cl [Ex. D-7]",
    "Compound's percent residue (%) pH 1.2": 99
  },
  {
    "compound": "N[C@]1(C(=O)O)[C@H]2[C@@H](C[C@@H]1F)[C@@H]2C(=O)OCOC(=O)OC12CC3CC(CC(C3)C1)C2 [Ex. A-13]",
    "Compound's percent residue (%) pH 1.2": 93
  },
  {
    "compound": "CSCC[C@H](N)C(=O)N[C@]1(C(=O)O)[C@H]2[C@@H](C[C@@H]1F)[C@@H]2C(=O)O.Cl [Ex. D-1]",
    "Compound's percent residue (%) pH 1.2": 103
  }
]

* * *

- protocol_details: Test 1: Solution Stability Test
- Type: physicochemical
- assay_setup: 20 mM phosphate buffer (pH 6.5), 37° C., one hour, about 50 μg/mL

[
  {
    "compound": "CCC[C@H](N)C(=O)N[C@]1(C(=O)O)[C@H]2[C@@H](C[C@@H]1F)[C@@H]2C(=O)O.Cl",
    "Compound's percent residue (%) pH 6.5": 100
  },
  {
    "compound": "C[C@H](N)C(=O)N[C@]1(C(=O)O)[C@H]2[C@@H](C[C@@H]1F)[C@@H]2C(=O)O.Cl",
    "Compound's percent residue (%) pH 6.5": 103
  },
  {
    "compound": "CSCC[C@H](N)C(=O)N[C@]1(C(=O)O)[C@H]2[C@@H](C[C@@H]1F)[C@@H]2C(=O)O.Cl",
    "Compound's percent residue (%) pH 6.5": 102
  },
  {
    "compound": "CC(OC(=O)[C@H]1[C@@H]2C[C@H](F)[C@@](N)(C(=O)O)[C@@H]21)OC(=O)C12CC3CC(CC(C3)C1)C2 (some centres unmarked)",
    "Compound's percent residue (%) pH 6.5": 101
  },
  {
    "compound": "CC(OC(=O)O[C@@H]1C[C@H](C)CC[C@H]1C(C)C)OC(=O)[C@H]1[C@@H]2C[C@H](F)[C@@](N)(C(=O)O)[C@@H]21 (some centres unmarked)",
    "Compound's percent residue (%) pH 6.5": 100
  },
  {
    "compound": "CC(C)C[C@H](N)C(=O)N[C@]1(C(=O)O)[C@H]2[C@@H](C[C@@H]1F)[C@@H]2C(=O)O.Cl",
    "Compound's percent residue (%) pH 6.5": 102
  },
  {
    "compound": "CC(OC(=O)OC1CCCCC1)OC(=O)[C@H]1[C@@H]2C[C@H](F)[C@@](N)(C(=O)O)[C@@H]21 (some centres unmarked)",
    "Compound's percent residue (%) pH 6.5": 97
  },
  {
    "compound": "CC(OC(=O)OC12CC3CC(CC(C3)C1)C2)OC(=O)[C@H]1[C@@H]2C[C@H](F)[C@@](N)(C(=O)O)[C@@H]21 (some centres unmarked)",
    "Compound's percent residue (%) pH 6.5": 97
  },
  {
    "compound": "CC(C)COC(C)OC(=O)[C@H]1[C@@H]2C[C@H](F)[C@@](N)(C(=O)O)[C@@H]21.Cl (some centres unmarked)",
    "Compound's percent residue (%) pH 6.5": 101
  },
  {
    "compound": "CC(C)(C)C(=O)OCOC(=O)[C@H]1[C@@H]2C[C@H](F)[C@@](N)(C(=O)O)[C@@H]21",
    "Compound's percent residue (%) pH 6.5": 99
  },
  {
    "compound": "CC(C)OC(=O)OC(C)OC(=O)[C@H]1[C@@H]2C[C@H](F)[C@@](N)(C(=O)O)[C@@H]21.O=C(O)C(F)(F)F (some centres unmarked)",
    "Compound's percent residue (%) pH 6.5": 101
  },
  {
    "compound": "Cl.NCC(=O)N[C@]1(C(=O)O)[C@H]2[C@@H](C[C@@H]1F)[C@@H]2C(=O)O",
    "Compound's percent residue (%) pH 6.5": 102
  },
  {
    "compound": "Cl.N[C@]1(C(=O)O)[C@H]2[C@@H](C[C@@H]1F)[C@@H]2C(=O)OC1OC(=O)c2ccccc21 (some centres unmarked)",
    "Compound's percent residue (%) pH 6.5": 97
  },
  {
    "compound": "CC(C)[C@@H]1CC[C@@H](C)C[C@H]1OC(=O)OCOC(=O)[C@H]1[C@@H]2C[C@H](F)[C@@](N)(C(=O)O)[C@@H]21",
    "Compound's percent residue (%) pH 6.5": 98
  }
]
